Molecular target: LPA3 (Homo sapiens)
Assay: Calcium flux assay using FLIPR, LPA3 antagonist activity
Conditions: antagonist activity
pIC50: −log10 of the molar value.
assayEndpoint: pIC50

[[record]]
compound = "Cc1nnn(-c2ccc(-c3ccc(C4(C(=O)O)CC4)cc3)cc2)c1NC(=O)OC(C)C1CC1 (centres unmarked)"
assayendpoint = "pIC50"
readoutvalue = "< 4.52"

[[record]]
compound = "Cc1nnn(-c2ccc(-c3ccccc3)cc2)c1NC(=O)O[C@H](C)c1ccccc1"
assayendpoint = "pIC50"
readoutvalue = "< 4.52"

[[record]]
compound = "Cc1nnn(-c2ccc(-c3ccc(C4(C(=O)O)CCC4)cc3)cc2)c1NC(=O)O[C@H](C)c1ccccc1 (single isomer, unassigned)"
assayendpoint = "pIC50"
readoutvalue = "< 4.52"

[[record]]
compound = "CCc1nnn(-c2ccc(-c3ccc(CC(=O)O)cc3)cc2)c1NC(=O)O[C@H](C)c1cccc(C(F)(F)F)c1"
assayendpoint = "pIC50"
readoutvalue = 4.84


Exam item: Report its pIC50 with LPA3 (Homo sapiens) as the test system: `C[C@@H](OC(=O)Nc1cnnn1-c1ccc(-c2ccc(CC(=O)O)cc2)cc1)c1ccccc1`
Marked response: < 4.52

----------
Assignment: determine reported pIC50 for the given compounds.
Biological target: human recombinant LPA1 Lysophospholipid receptor (Homo sapiens, UniProt Q92633)
Sequence (Q92633 whole entry): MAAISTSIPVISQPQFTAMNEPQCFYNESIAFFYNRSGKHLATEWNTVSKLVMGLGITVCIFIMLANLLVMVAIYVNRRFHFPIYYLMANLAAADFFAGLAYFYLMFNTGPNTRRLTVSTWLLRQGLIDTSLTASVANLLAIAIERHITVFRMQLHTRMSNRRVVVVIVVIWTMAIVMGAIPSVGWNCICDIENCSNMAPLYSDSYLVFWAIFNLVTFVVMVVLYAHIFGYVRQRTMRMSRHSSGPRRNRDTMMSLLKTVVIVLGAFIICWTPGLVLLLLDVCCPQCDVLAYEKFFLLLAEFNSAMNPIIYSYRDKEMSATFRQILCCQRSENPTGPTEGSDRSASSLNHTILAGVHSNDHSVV
Assay: Calcium flux assay using FLIPR, LPA1 antagonist activity
Conditions: ChemiScreen Calcium-optimized stable cell line; antagonist mode, inhibition of agonist-induced calcium flux
Description: Calcium Flux Assay Using Fluorometric Imaging Plate Reader (FLIPR) Cell Culture Conditions: The ChemiScreen Calcium-optimized stable cell line containing the human recombinant LPA1 Lysophospholipid receptor was purchased from Chemicon International, Inc./Millipore. […] Cells were harvested with trypsin-EDTA and counted using ViaCount reagent. […]
Answers are plain numbers, as −log10 of the molar value.

// solved cases for pIC50 follow
[[record]]
compound = "Cc1nnn(-c2ccc(-c3ccc(C4(C(=O)O)CC4)cc3)cc2)c1NC(=O)O[C@H](C)c1ccccc1C(F)(F)F"
assayendpoint = "pIC50"
readoutvalue = 6.95

[[record]]
compound = "Cc1nnn(-c2ccc(-c3ccc(C4(C(=O)O)CC4)cc3)cc2)c1NC(=O)O[C@H](C)c1cccc(C(F)(F)F)c1"
assayendpoint = "pIC50"
readoutvalue = 6.76


Provide each entry's pIC50 from the list below.
1. CCc1nnn(-c2ccc(-c3ccc(CC(=O)O)cc3)cc2)c1NC(=O)O[C@H](C)c1cccc(C(F)(F)F)c1
2. Cc1nnn(-c2ccc(-c3ccc(C4(C(=O)O)CC4)cc3)cc2)c1NC(=O)OC(C)C1CCC1 (stereo not shown)

Marked response:
4.67
6.79

----------
Kindly supply the reported IC50 values for the records listed here.
Molecular target: UniProtKB Q9UBY5
Sequence (Q9UBY5 1-353): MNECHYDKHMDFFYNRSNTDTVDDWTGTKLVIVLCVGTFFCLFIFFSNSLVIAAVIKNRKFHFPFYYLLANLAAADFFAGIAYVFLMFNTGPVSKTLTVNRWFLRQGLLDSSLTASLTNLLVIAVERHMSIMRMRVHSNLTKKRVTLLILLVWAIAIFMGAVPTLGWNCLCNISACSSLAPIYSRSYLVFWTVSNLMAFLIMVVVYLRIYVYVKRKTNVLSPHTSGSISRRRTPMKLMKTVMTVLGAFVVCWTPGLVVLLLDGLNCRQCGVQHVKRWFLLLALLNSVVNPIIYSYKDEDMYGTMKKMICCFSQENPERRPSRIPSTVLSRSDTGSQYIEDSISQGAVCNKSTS
Experiment: Calcium flux assay using FLIPR, LPA3 antagonist activity
Conditions: antagonist activity

Would you be so kind as to report IC50 for each listed record?
1. Cc1nnn(-c2ccc(-c3ccc(C4(C(=O)O)CC4)cc3)cc2)c1NC(=O)O[C@H](C)C(C)C
2. Cc1nnn(-c2ccc(-c3ccc(C4(C(=O)O)CC4)cc3)cc2)c1NC(=O)O[C@H](C)c1ccccc1
3. Cc1nnn(-c2ccc(-c3ccc(C4(C(=O)O)CC4)cc3)cc2)c1NC(=O)O[C@H](C)c1cccc(C(F)(F)F)c1
4. Cc1nnn(-c2ccc(C3CCC(CC(=O)O)CC3)cc2)c1NC(=O)O[C@H](C)c1ccccc1 (stereo partly shown)
5. CCc1nnn(-c2ccc(-c3ccc(C4(C(=O)O)CC4)cc3)cc2)c1NC(=O)O[C@H](C)c1cccc(C(F)(F)F)c1

Marked response:
["> 30 µM", "> 30 µM", "6.86 µM", "> 30 µM", "4.82 µM"]

For each listed entry, give its IC50.
1. Cc1nnn(-c2ccc(-c3ccc(C4(C(=O)O)CC4)cc3)cc2)c1NC(=O)O[C@@H]1CCc2ccccc21
2. CCc1nnn(-c2ccc(-c3ccc(CC(=O)O)cc3)cc2)c1NC(=O)O[C@H](C)c1ccccc1

Marked response:
["> 30 µM", "> 30 µM"]
